- Tested on: transplanted tumor of human glioblastoma cell A172
- assay-setup: A172 nude mice; 50 mg/kg; d30
recorded-metric: Tumor Volume (mm3) (d30)
Write the value in mm3 as a bare number.

compound: CO[C@@H]1[C@@H](O[C@@H]2O[C@H](C)[C@@H](O[C@H]3C[C@@](C)(O)[C@@H](OC(=O)CC(C)C)[C@H](C)O3)[C@H](N(C)C)[C@H]2O)[C@@H](CC=O)C[C@@H](C)[C@@H](O[C@H]2CC[C@H](N(C)C)[C@@H](C)O2)/C=C/C=C/C[C@@H](C)OC(=O)C[C@H]1O
tested-on: transplanted tumor of human glioblastoma cell A172
Tumor Volume (mm3) (d30): 513.12

compound: COC1C(OC(C)=O)CC(=O)OC(C)CC=CC=CC(OC2CCC(N(C)C)C(C)O2)C(C)CC(CC=O)C1OC1OC(C)C(OC2CC(C)(O)C(OC(=O)CC(C)C)C(C)O2)C(N(C)C)C1O (stereo not shown)
tested-on: transplanted tumor of human glioblastoma cell A172
Tumor Volume (mm3) (d30): 851.14

// lookup Tumor Volume (mm3) (d30) | system=transplanted tumor of human glioblastoma cell A172 | key= Cn1nnc2c(C(N)=O)ncn2c1=O [temozolomide, reference compound]
482.11

// lookup Tumor Volume (mm3) (d30) | system=transplanted tumor of human glioblastoma cell A172 | key= CCC(=O)O[C@@H]1CC(=O)O[C@H](C)C/C=C/C=C/[C@H](O[C@H]2CC[C@H](N(C)C)[C@@H](C)O2)[C@H](C)C[C@H](CC=O)[C@H](O[C@@H]2O[C@H](C)[C@@H](O[C@H]3C[C@@](C)(O)[C@@H](OC(=O)CC(C)C)[C@H](C)O3)[C@H](N(C)C)[C@H]2O)[C@H]1OC
795.73
